- System Under Test: T1, GST-fused K63-linked diubiquitin (K63-Ub2) (UniProt P0CG48 1-76; P0CG48 1-76, K63R | additional aspartate residue at its C-terminal extremity (D77), K63-linked to the other Ub chain | K63-linked to the other Ub chain)
- T1 construct: ubiquitin carrying the K63R mutation, GST-fused; ubiquitin with an additional aspartate residue at its C-terminal extremity (D77 Ub); Surmised: Gly76 of GST-K63R Ub (distal) is joined by an isopeptide bond to Lys63 of D77 Ub (proximal); also called K63-linked Ub2; GST-fused K63-Ub2
- Test Name: SPR; Biacore T200, Sensor Chip C1; GST-fused Ub or Ub2 captured by immobilised anti-GST antibodies (200-400 RU); FAAP20-UBZ injected 60 s at 10 uL/min; 25°C, HBS-P (10 mM HEPES-Na pH 7.4, 150 mM NaCl, 0.05% surfactant P20); equilibrium fit, 1:1 model; triplicate
- Test Settings: both partners purified
Endpoint Name: Kd
Kindly format the answer as number then unit.

Problem: # lookup: Kd of AALRSCPMCQKEFAPRLTQLDVDSHLAQCLAESTEDVTW (domain or fragment, human, UniProt Q6NZ36 142-180, looked up, also called FAAP20-UBZ(wt); WT; source: E. coli Rosetta (DE3), purified (Glutathione Sepharose FF, ResourceQ, HRV3C cleavage, Superdex75); not shown: GST, N-terminal, cleaved) [FAAP20-UBZ (UBZ domain of FAAP20, residues 142-180), wild type]
Solution: 35.9 µM
